molecular target: Torsin-1A-interacting protein 2 (Homo sapiens) (UniProt Q8NFQ8); assay: LULL1 binders on small-molecule microarray, primary screen, cell lysate, human LULL1 lysate, 635/667 nm fluorescence (AID 1092); details: hLULL1 lysate binding, 635 nm fluorescence, higher = more signal;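 also: probe is lysate of COS7 cells overexpressing human LULL1; score merges per-feature 667 nm fluorescence with signal-to-noise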
Sequence (Q8NFQ8 whole entry, looked up): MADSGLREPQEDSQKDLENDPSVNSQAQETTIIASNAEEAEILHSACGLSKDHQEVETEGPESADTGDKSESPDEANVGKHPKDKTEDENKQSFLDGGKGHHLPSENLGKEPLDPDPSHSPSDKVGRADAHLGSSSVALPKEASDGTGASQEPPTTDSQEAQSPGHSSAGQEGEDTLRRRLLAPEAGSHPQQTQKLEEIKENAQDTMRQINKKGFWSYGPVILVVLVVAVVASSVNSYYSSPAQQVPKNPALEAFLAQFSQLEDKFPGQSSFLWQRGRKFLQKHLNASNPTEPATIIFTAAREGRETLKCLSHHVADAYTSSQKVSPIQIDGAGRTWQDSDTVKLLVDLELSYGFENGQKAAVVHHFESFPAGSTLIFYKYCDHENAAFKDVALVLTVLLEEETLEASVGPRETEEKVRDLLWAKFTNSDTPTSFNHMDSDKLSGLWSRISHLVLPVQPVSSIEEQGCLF
Everything with composite z-score lower than 0.6 is NOT MET; everything else, including exactly 0.6, is MET.

>  <Compound>
C=C(CCCC)/C(=C/C[C@@H](OC(C)=O)c1ccc(OCCO)cc1)c1cc(C(=O)OC)ccc1OC

>  <Label class>
MET

$$$$
>  <Compound>
Cc1ccc(N2C(=O)c3ccccc3[C@@H](C(=O)NCCN3CCOCC3)[C@@H]2c2ccc(CO)cc2)nc1

>  <Label class>
NOT MET

$$$$
>  <Compound>
C=C(C(=O)CC[C@@H](OC(=O)c1ccccc1-c1ccccc1C(=O)O)c1ccc(CO)o1)C(C)C

>  <Label class>
NOT MET

$$$$
>  <Compound>
O=C1O[C@@H](c2ccccc2)[C@@H](c2ccccc2)N2[C@@H](c3ccc(OCCO)cc3)[C@]3(C(=O)Nc4ccc(C#CC5=CCCCC5)cc43)[C@@H](C(=O)Nc3nc4ccccc4s3)[C@H]12

>  <Label class>
MET

$$$$
>  <Compound>
CC(C)N1C(=O)[C@@]2(Cc3ccccc31)c1ccccc1C(=O)N(Cc1ccccc1)[C@H]2c1ccc(CO)cc1

>  <Label class>
NOT MET

$$$$
>  <Compound>
COCCOC(=O)N1C(=O)[C@@]2(c3cc(C#CCNC(N)=O)ccc31)[C@H](C(=O)N1CCN(c3ncccn3)CC1)[C@H]1C(=O)O[C@H](c3ccccc3)[C@H](c3ccccc3)N1[C@@H]2c1ccc(O)cc1

>  <Label class>
MET

$$$$
>  <Compound>
COC(=O)[C@@]1(Cc2ccccc2)[C@H]2c3cc(C(=O)N(C)C)n(CCF)c3C[C@H]2CN1C(=O)c1ccccc1

>  <Label class>
MET

$$$$
>  <Compound>
COc1cc(Cc2cc3c(c(CCc4ccccc4)n2)[Si](C(C)C)(C(C)C)O[C@H]3c2ccccc2)cc(OC)c1OC

>  <Label class>
NOT MET

$$$$
>  <Compound>
COc1ccc([Si](C)(C)[C@@H]2[C@@H](CC(=O)N3CCC[C@H]3CO)O[C@]3(C(=O)N(Cc4cccc(N5C(=O)c6cccc7cccc5c67)c4)c4ccccc43)[C@H]2C)cc1

>  <Label class>
MET

$$$$
>  <Compound>
C=CCOC(=O)[C@H]1[C@@H]2C(=O)O[C@@H](c3ccccc3)[C@@H](c3ccccc3)N2[C@@H](c2ccc(OCCOC(=O)[C@H]3C[C@H]4C(=O)NCC(=O)N4[C@H]3c3ccc(O)cc3)cc2)[C@]12C(=O)Nc1ccccc12

>  <Label class>
MET

$$$$
>  <Compound>
C=CCNC(=O)[C@H]1[C@@H]2C(=O)O[C@@H](c3ccccc3)[C@@H](c3ccccc3)N2[C@@H](c2ccc(O)cc2)[C@]12C(=O)Nc1ccc(C#CCC(C(=O)OC)C(=O)OC)cc12

>  <Label class>
MET

$$$$
>  <Compound>
COc1cc2c(cc1O)C(C)N(Cc1sc3ccccc3c1Cl)CC2 (stereo not drawn)

>  <Label class>
NOT MET

$$$$
>  <Compound>
O=C1C2C=CC(C(O)C3CCCCC3)N(Nc3ccccc3F)C2C(=O)N1c1ccccc1 (stereo not drawn)

>  <Label class>
MET

$$$$

* * *

test system: Neuregulin-1 EGF-like domain; assay: binders of neuregulin-1 EGF-like domain, primary screen, biochemical, small-molecule microarray, 635 nm fluorescence (AID 1081); details: small-molecule microarray binding, higher = more signal;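 also: binding of the protein to compounds printed on small-molecule microarray slides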

>  <Compound>
COCCOC(=O)N1C(=O)[C@@]2(c3cc(C#CCNC(N)=O)ccc31)[C@H](c1ccccc1OCCO)N1[C@H](c3ccccc3)[C@H](c3ccccc3)OC(=O)[C@H]1[C@@H]2C(=O)N1CCCCCCC1

>  <composite z-score>
1.1

$$$$
>  <Compound>
CC[C@@H](O[Si](C#C[Si](C(C)C)(C(C)C)C(C)C)(C(C)C)C(C)C)c1cn([C@H](CO)Cc2ccccc2)nn1

>  <composite z-score>
0.846

$$$$
>  <Compound>
O=C1OCCC/C=C\[C@H]2OC34C=CCN(Cc5ccccc5)C(=O)[C@H]3N(CCO)C(=O)[C@@H]4C12 (stereo partly drawn)

>  <composite z-score>
1.53

$$$$
>  <Compound>
CC(C)C[C@H]1NC(=O)CNC(=O)[C@@]23C(=O)N[C@@H](Cc4ccccc4)C2[C@H](C)[C@@]2(C)O[C@H]2C3/C=C/C/C=C\CNC1=O (stereo partly drawn)

>  <composite z-score>
0.598

$$$$
>  <Compound>
[N-]=[N+]=NCc1ccccc1C[C@]1(C(=O)N2CCCCC2)COC(c2ccc(OCCCO)cc2)=N1

>  <composite z-score>
0.996

$$$$
>  <Compound>
CCCCCCc1nc(Cc2cc(OC)c(OC)c(OC)c2)c(C)c2c1[Si](C(C)C)(C(C)C)OC2

>  <composite z-score>
0.105

$$$$
>  <Compound>
C=C(C(=O)CC[C@@H](OC(=O)c1ccccc1-c1ccccc1C(=O)O)c1ccc(OCCO)cc1)C(C)C

>  <composite z-score>
0.512

$$$$
>  <Compound>
CCCCC(=C=CC[C@H](O)c1ccccc1OCCO)CCO

>  <composite z-score>
0.787

$$$$

* * *

assay: binders of probe aHhip on microarray, primary screen, stem cell growth factor project, biochemical, small-molecule microarray, fluorescence 635/667 (AID 1087); details: higher = more signal;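 also: score merges spot fluorescence at 667nm with spot signal to noise ratio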

>  <Compound>
C[C@]1(C(=O)NC2CC2)c2ccccc2C(=O)N(Cc2cc(F)cc(C(F)(F)F)c2)[C@H]1c1ccc(CO)cc1

>  <composite z-score>
-0.256

$$$$
>  <Compound>
COCCOC(=O)N1C(=O)[C@@]2(c3cc(C#CC4=CCCCC4)ccc31)[C@H](c1ccc(O)cc1)N1[C@H](c3ccccc3)[C@H](c3ccccc3)OC(=O)[C@H]1[C@@H]2C(=O)N1CCc2cc(OC)c(OC)cc2C1

>  <composite z-score>
-0.0296

$$$$
>  <Compound>
COC(=O)[C@@]1(Cc2ccccc2)[C@H]2c3cc(C(=O)N(C)C)n(Cc4nc5ccccc5[nH]4)c3C[C@H]2CN1C(=O)c1ccccc1

>  <composite z-score>
-0.315

$$$$
>  <Compound>
CCOC(=O)C[C@H]1[C@H](OC(=O)c2ccc(-c3ccccc3)cc2)[C@@H](NC(=O)C2CCCCC2)c2cc(OCCCO)ccc2N1C(=O)Cc1ccc(OC)cc1

>  <composite z-score>
0.0722

$$$$
>  <Compound>
C=C(C(=O)CC[C@@H](OC(=O)c1ccccc1-c1ccccc1C(=O)O)c1ccc(OCCO)cc1)C(C)C

>  <composite z-score>
0.245

$$$$
>  <Compound>
COCCOC(=O)N1C(=O)[C@@]2(c3cc(C#CCNC(N)=O)ccc31)[C@H](C(N)=O)[C@H]1C(=O)O[C@H](c3ccccc3)[C@H](c3ccccc3)N1[C@@H]2c1ccc(O)cc1

>  <composite z-score>
-0.287

$$$$
>  <Compound>
O=C1OCCC/C=C\[C@H]2OC34C=CCN(Cc5ccccc5)C(=O)[C@H]3N(CCO)C(=O)[C@@H]4C12 (stereo partly drawn)

>  <composite z-score>
-0.0994

$$$$
>  <Compound>
C=C(COC)C(=O)CC[C@H](OC(C)=O)c1ccc(CO)o1

>  <composite z-score>
-0.132

$$$$
>  <Compound>
C=C(C(=O)CC[C@H](OC(=O)c1ccccc1-c1ccccc1C(=O)O)c1ccc(OCCO)cc1)C(C)C

>  <composite z-score>
-0.0994

$$$$
>  <Compound>
CCCCN1CC=CC23O[C@@H]4C=CCCOC(=O)C4[C@H]2C(=O)N(CCO)[C@@H]3C1=O (stereo partly drawn)

>  <composite z-score>
0.176

$$$$
>  <Compound>
COCCOC(=O)N1C(=O)[C@@]2(c3cc(C#CCNC(N)=O)ccc31)[C@H](C(=O)Nc1nc3ccccc3s1)[C@H]1C(=O)O[C@H](c3ccccc3)[C@H](c3ccccc3)N1[C@@H]2c1ccc(O)cc1

>  <composite z-score>
0.0373

$$$$
>  <Compound>
CCOC(=O)C[C@H]1[C@H](OC(=O)c2cc3ccccc3oc2=O)[C@@H](NC(=O)Cc2ccc(OC)cc2)c2cc(OCCCO)ccc2N1C(=O)Cc1ccc(OC)cc1

>  <composite z-score>
-0.179

$$$$
>  <Compound>
COc1ccc([Si](C)(C)[C@@H]2[C@@H](CC(=O)N3CCC[C@H]3CO)O[C@]3(C(=O)N(Cc4cccc(N5C(=O)c6cccc7cccc5c67)c4)c4ccccc43)[C@H]2C)cc1

>  <composite z-score>
-0.0618

$$$$

* * *

assay: CREB reporter modulators without forskolin, primary screen, cell-based, PC12, CRE-LacZ reporter, unstimulated (AID 1145); conditions: no forskolin, luminescence, 4.5 h, higher = more signal, called active from +8 up or from −8 down
Everything with z-score lower than 0.7 is condition not met; everything else, including exactly 0.7, is condition met.

>  <Compound>
C=CC[C@]1(C(=O)NCC(O)CO)N=C(c2ccc(OCCCO)cc2)O[C@H]1c1ccccc1CN=[N+]=[N-] (some centres not stated)

>  <Label class>
condition not met

$$$$
>  <Compound>
COCCCNC(=O)[C@]1(Cc2ccccc2CN=[N+]=[N-])N=C(c2ccc(OCCCO)cc2)O[C@@H]1c1ccccc1N=[N+]=[N-]

>  <Label class>
condition met

$$$$
>  <Compound>
COc1cccc(C)c1NC(=O)O[C@H]1[C@H](OC(=O)Nc2ccccc2-c2ccccc2)[C@@H](OC(=O)Nc2ccccc2-c2ccccc2)[C@@H](OC)O[C@@H]1CO

>  <Label class>
condition met

$$$$
>  <Compound>
COCCOC(=O)N1C(=O)[C@@]2(c3ccccc31)[C@H](C(=O)Nc1nc3ccccc3s1)[C@H]1C(=O)O[C@H](c3ccccc3)[C@H](c3ccccc3)N1[C@@H]2c1ccccc1OCCO

>  <Label class>
condition not met

$$$$
>  <Compound>
COCCOC(=O)N1C(=O)[C@@]2(c3cc(C#CCNC(N)=O)ccc31)[C@H](C(N)=O)[C@H]1C(=O)O[C@H](c3ccccc3)[C@H](c3ccccc3)N1[C@@H]2c1ccc(O)cc1

>  <Label class>
condition not met

$$$$
>  <Compound>
C=C(CCCC)C(=O)CC[C@@H](OC(C)=O)c1ccc(OCCO)cc1

>  <Label class>
condition not met

$$$$
>  <Compound>
CC(C)(C)OC(=O)CC[C@]1(C(=O)N2CCOCC2)COC(c2ccc(OCCCO)cc2)=N1

>  <Label class>
condition met

$$$$
